# targetOfAssay: T1, His-nNOS[1–155] (human, UniProt P29475-1 1-155)
# T1 construct: Two batches were used
# T1 sequence (P29475 1-155): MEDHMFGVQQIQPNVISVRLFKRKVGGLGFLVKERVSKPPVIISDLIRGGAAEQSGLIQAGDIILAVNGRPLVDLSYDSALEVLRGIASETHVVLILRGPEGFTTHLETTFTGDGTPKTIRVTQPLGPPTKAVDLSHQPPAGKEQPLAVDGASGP
# assaySummary: fluorescence polarisation; increasing His-nNOS(1–155) added to 1 μM F-GDLV in 50 mM Tris pH 7.4, 100 mM NaCl, 1 mM EDTA, 0.1% BSA; one-site quadratic fit; triplicates from each of two nNOS batches
# runParameters: both partners purified
Where no end group is shown, it is not given here. fluorescein = fluorescein label at the peptide N-terminus
readout: pKd
Lab note — pKd values are minus log10 of concentrations in M.

Which pKd value is on record for fluorescein-RRRRWGDLV (also called F-GLDV; source: synthetic peptide, bought: Genic Bio (Shanghai, China)) [F-GDLV (fluorescein-RRRRWGDLV)] ?
4.97

These data points were gathered from paper PMC5350102.
